Origin of measurements: ChEMBL document CHEMBL5241080

Known IC50 of a selection of molecules
- TEST_DETAILS: Inhibition of topoisomerase 2 (unknown origin)
- Design: species or system Homo sapiens
Give the value in µM but do not write µM after it.

# MOLECULAR_STRING, IC50 (µM)
data = [
    ("CN(C)CCNc1nc2cc(O)ccc2c2c1C(=O)c1ccccc1-2", 6.5),
]

// next entry
Q: // lookup IC50 for CN(C)CCCO/N=C1\c2cc(OCCCN(C)C)ccc2-c2cnc3ccccc3c21
Ans: 4.95

---

Measured bioavailability accompanies every entry in the list below.
- TEST_DETAILS: Oral bioavailability CD-1 mouse at 30 mg/kg
- Assay type: ADME, organism-based
- MEASUREMENT_PARAMETERS: in vivo
Respond with the bare value in %.

# MOLECULAR_STRING, MEAS_VALUE
data = [
    ("COc1ccc2c(c1)/C(=N\\OCCN1CCCC1)c1c-2c(O)nc2ccccc12", 10.9),
]

Consider the record given below.
Q: For CN(C)CCCO/N=C1\c2cc(OCCCN(C)C)ccc2-c2cnc3ccccc3c21 , what is its reported bioavailability?
Ans: 39.8

---

- Tested on: Raji
- TEST_DETAILS: Antiproliferative activity against human Raji cells assessed as reduction cell viability incubated for 48 hrs by MTT assay
- Assay type: functional, cell-based
EXPERIMENTAL_ENDPOINT: IC50 (nM)
Give the number; nM is assumed, so skip it.

Q: Report IC50 for O=C(Nc1ccc(NC(=O)c2ccc(Nc3ccnc4ccccc34)cc2)cc1)OCc1ccccc1 please.
Ans: 400

---

- TGT: DNA (cytosine-5)-methyltransferase 1 (Homo sapiens)
- Sequence (P26358 whole entry, the tested form may be a part): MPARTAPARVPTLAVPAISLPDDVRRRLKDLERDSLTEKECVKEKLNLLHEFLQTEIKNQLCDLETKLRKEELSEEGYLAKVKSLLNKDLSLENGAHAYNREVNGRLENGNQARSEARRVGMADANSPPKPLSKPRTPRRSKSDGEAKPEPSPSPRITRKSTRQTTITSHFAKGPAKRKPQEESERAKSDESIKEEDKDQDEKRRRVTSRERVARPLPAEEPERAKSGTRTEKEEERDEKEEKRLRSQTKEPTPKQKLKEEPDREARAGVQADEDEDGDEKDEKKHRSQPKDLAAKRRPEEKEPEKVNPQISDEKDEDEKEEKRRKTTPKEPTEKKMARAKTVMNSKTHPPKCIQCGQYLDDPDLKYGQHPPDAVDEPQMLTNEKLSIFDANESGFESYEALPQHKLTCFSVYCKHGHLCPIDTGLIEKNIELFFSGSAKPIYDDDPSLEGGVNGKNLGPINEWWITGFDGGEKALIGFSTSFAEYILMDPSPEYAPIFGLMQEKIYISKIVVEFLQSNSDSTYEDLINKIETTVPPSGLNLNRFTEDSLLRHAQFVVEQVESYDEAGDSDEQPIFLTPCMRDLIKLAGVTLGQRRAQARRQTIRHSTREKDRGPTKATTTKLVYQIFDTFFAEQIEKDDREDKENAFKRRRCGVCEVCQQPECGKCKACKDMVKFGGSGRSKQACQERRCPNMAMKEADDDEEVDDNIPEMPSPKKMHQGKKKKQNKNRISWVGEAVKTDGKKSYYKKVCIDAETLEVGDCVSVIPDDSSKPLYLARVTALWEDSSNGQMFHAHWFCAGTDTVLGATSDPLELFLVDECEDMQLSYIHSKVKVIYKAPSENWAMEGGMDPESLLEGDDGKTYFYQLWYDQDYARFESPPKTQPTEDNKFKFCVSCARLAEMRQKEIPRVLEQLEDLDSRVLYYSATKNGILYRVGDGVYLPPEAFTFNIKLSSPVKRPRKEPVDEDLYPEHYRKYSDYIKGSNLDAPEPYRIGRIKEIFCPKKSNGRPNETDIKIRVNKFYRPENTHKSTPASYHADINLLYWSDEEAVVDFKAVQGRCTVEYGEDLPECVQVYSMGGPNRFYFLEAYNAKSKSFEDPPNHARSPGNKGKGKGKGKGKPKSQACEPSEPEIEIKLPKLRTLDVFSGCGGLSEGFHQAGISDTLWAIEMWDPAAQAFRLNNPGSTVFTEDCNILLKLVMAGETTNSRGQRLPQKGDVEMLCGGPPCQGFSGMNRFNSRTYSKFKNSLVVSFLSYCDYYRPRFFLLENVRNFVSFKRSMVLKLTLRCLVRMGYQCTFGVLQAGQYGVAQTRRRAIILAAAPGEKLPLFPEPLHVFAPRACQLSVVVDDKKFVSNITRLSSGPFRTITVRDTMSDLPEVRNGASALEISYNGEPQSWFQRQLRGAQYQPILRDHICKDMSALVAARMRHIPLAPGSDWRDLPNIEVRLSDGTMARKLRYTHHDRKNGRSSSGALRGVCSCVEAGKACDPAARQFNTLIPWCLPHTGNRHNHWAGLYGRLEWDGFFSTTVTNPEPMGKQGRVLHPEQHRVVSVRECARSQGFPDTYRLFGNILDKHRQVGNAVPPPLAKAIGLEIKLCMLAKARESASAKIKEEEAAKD
- TEST_DETAILS: Inhibition of his-tagged human DNMT1 by scintillation counter analysis
Known pIC50 of a selection of molecules
As a rule, pIC50 stands for the negative log10 of the concentration, concentration in M.

# MOLECULAR_STRING, pIC50
rows = [
    ("O=C(Nc1ccc(Nc2ccnc3ccccc23)cc1)c1cccc(Nc2ccnc3ccccc23)c1", 4.57),
]

# evaluate next
Q: I would be grateful if you could share the reported pIC50 for O=C(Nc1ccc(Nc2ccnc3ccccc23)cc1)c1ccc(Nc2ccncc2)cc1 .
Ans: 4.64

---

- Tested on: RPMI-8226
- TEST_DETAILS: Antiproliferative activity against human RPMI-8226 cells
- Type: functional, cell-based
EXPERIMENTAL_ENDPOINT: pIC50
Scale for pIC50: -log10 of concentration given in mol/L; no unit attached.

Q: Param item = O=C(/C=C/c1cccc(S(=O)(=O)c2ccc3ccccc3n2)c1)NO ; retrieve measured pIC50.
Ans: 5.13

---

- TEST_DETAILS: Antiproliferative activity against human MED-MEB-8A cells
- Type: functional, cell-based
EXPERIMENTAL_ENDPOINT: IC50

Q: Requested read-out: IC50. Entry: COc1cc(NC(=O)NOCCCCCC(=O)NO)c2nc(OC)cc(C)c2c1
Ans: 0.59 µM

---

- System: HepG2
- TEST_DETAILS: Antiproliferative activity against human HepG2 cells
- Type: functional, cell-based
EXPERIMENTAL_ENDPOINT: pIC50
Remember the convention: pIC50 equals -log10 of concentration in molar.

Q: Given the entry CCCOC(=O)N1CCN(C(=O)c2ccc3c(Cl)c4c(nc3c2)CCC(CCN)C4)CC1 (stereo unspecified) , report its measured pIC50.
Ans: 4.96

---

- TGT: DNA (cytosine-5)-methyltransferase 3A (Homo sapiens, UniProt Q9Y6K1)
- Sequence (Q9Y6K1 whole entry, looked up): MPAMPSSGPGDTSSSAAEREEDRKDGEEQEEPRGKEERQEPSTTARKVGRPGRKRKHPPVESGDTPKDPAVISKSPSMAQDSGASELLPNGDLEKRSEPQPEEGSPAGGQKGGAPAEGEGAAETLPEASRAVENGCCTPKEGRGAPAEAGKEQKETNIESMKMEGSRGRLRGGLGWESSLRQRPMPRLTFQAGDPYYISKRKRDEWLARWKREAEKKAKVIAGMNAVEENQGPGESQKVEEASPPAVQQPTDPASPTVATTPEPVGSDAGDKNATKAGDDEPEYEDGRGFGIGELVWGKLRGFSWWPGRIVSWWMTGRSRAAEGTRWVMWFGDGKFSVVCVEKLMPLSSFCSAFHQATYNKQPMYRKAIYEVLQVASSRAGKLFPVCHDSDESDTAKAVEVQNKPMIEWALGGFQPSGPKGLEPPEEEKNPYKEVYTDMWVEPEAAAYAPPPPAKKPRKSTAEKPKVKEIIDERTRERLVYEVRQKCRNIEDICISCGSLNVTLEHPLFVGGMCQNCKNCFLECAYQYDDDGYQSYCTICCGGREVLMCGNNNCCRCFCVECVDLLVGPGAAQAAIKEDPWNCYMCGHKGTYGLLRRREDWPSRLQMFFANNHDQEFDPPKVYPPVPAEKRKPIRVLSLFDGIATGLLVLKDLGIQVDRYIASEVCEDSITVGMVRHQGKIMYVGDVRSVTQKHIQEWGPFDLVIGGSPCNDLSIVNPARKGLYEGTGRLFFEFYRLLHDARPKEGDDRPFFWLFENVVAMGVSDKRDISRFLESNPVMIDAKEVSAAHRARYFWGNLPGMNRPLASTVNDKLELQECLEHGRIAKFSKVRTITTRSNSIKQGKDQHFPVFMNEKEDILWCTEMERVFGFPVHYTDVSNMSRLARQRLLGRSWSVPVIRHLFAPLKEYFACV
- TEST_DETAILS: Inhibition of DNMT3A (unknown origin)
EXPERIMENTAL_ENDPOINT: IC50 (µM)
// units = µM; emit number, no label

Q: Query IC50 on DNA (cytosine-5)-methyltransferase 3A (Homo sapiens, UniProt Q9Y6K1) for O=C(Nc1ccc(Nc2ccnc3ccccc23)cc1)c1ccc(Nc2ccncc2)cc1
Ans: 0.9

---

- Test system: T-24
- TEST_DETAILS: Cytotoxicity against human T24 cells
- Type: functional, cell-based
EXPERIMENTAL_ENDPOINT: pIC50
Quick note: pIC50 values are minus log10 of concentrations in mol/L.

Q: Fill in: pIC50 of CCCCCCOc1ccc(/C=N/Nc2cc(C)nc3ccc(Cl)cc23)cc1 is ___
Ans: 5.50

---

- Test system: HCT-116
- TEST_DETAILS: Cytotoxicity against human HCT-116 cells assessed as inhibition of cell growth incubated for 72 hrs by MTT assay
- Format: functional, cell-based
- MEASUREMENT_PARAMETERS: HCT-116, 72 h
EXPERIMENTAL_ENDPOINT: IC50 (nM)
Give just the number in nM; leave the unit off.

Q: Given COc1cc2c(Oc3ccc(NC(=O)C4CCN(c5ccc(F)cc5)C4=O)cc3)ccnc2cc1OCCCCCCC(=O)NO (stereo unspecified) , state its recorded IC50.
Ans: 0.54

---

- TGT: Histone-lysine N-methyltransferase SMYD3 (Homo sapiens, UniProt Q9H7B4)
- Sequence (Q9H7B4 whole entry): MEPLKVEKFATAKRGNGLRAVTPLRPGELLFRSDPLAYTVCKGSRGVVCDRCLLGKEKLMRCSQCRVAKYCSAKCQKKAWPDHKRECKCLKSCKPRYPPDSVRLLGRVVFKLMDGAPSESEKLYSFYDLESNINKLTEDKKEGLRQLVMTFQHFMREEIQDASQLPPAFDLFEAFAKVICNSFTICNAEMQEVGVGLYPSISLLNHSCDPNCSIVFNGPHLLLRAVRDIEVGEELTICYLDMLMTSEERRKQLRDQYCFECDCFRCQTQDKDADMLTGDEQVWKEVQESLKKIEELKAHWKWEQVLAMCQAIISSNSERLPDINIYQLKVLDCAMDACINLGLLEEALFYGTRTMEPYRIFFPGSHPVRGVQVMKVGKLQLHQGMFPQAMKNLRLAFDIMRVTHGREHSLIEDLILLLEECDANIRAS
EXPERIMENTAL_ENDPOINT: IC50 (nM)
Value expressed in nM; do not type the unit.

Q: # IC50 lookup, item CCCOC(=O)N1CCN(C(=O)c2ccc3c(Cl)c4c(nc3c2)CCC(CCN)C4)CC1 (stereo unspecified)
Ans: 40

---

- Tested on: SK-MEL-5
- TEST_DETAILS: Antiproliferative activity against human SK-MEL-5 cells
- Type: functional, cell-based
EXPERIMENTAL_ENDPOINT: IC50 (nM)
Quick reminder: number only, in nM, skip the unit.

Q: Look up IC50: CC[C@@]1(O)C(=O)OCc2c1cc1n(c2=O)Cc2c-1nc1cc(F)c(OC)cc1c2C
Ans: 2.6

---

- TGT: DNA (cytosine-5)-methyltransferase 1 (Homo sapiens)
- TEST_DETAILS: Inhibition of human recombinant full-length N-terminal GST tagged DNMT1 (2 to 1632 residues) expressed in Sf9 insect cells using poly(dI-dC) as substrate by hotspot assay
EXPERIMENTAL_ENDPOINT: pIC50
Reminder that pIC50 means the negative base-10 logarithm of the concentration expressed in mol/L.

Q: Name the reported pIC50 value associated with the compound O=C(Nc1ccc(NC(=O)c2ccc(Nc3ccnc4ccccc34)cc2)cc1)OCc1ccccc1
Ans: 4.17

---

- Tested on: A549
- TEST_DETAILS: Antiproliferative activity against human A549 cells assessed as reduction in cell viability incubated for 48 hrs by MTT assay
- Type: functional, cell-based
- MEASUREMENT_PARAMETERS: A549, 48 h
EXPERIMENTAL_ENDPOINT: pIC50
To interpret pIC50, take it as minus log10 of a concentration measured in moles per litre.

Q: Name the recorded pIC50 for CN(C)CCCO/N=C1\c2cc(OCCCN(C)C)ccc2-c2cnc3ccccc3c21 .
Ans: 5.95

---

- Tested on: HeLa
- TEST_DETAILS: Antiproliferative activity against human HeLa cells incubated for 24 hrs by WST-1 assay
- Format: functional, cell-based
EXPERIMENTAL_ENDPOINT: IC50 (nM)
Please give a number only; it is taken to be in nM.

Q: What IC50 value was documented for this compound, C/C(=C\c1ccc(C(=O)NO)cc1)CNc1cnc2c(Br)cccc2c1 ?
Ans: 1800

---

- TGT: Hepatocyte growth factor receptor (Homo sapiens)
- Sequence (P08581 whole entry): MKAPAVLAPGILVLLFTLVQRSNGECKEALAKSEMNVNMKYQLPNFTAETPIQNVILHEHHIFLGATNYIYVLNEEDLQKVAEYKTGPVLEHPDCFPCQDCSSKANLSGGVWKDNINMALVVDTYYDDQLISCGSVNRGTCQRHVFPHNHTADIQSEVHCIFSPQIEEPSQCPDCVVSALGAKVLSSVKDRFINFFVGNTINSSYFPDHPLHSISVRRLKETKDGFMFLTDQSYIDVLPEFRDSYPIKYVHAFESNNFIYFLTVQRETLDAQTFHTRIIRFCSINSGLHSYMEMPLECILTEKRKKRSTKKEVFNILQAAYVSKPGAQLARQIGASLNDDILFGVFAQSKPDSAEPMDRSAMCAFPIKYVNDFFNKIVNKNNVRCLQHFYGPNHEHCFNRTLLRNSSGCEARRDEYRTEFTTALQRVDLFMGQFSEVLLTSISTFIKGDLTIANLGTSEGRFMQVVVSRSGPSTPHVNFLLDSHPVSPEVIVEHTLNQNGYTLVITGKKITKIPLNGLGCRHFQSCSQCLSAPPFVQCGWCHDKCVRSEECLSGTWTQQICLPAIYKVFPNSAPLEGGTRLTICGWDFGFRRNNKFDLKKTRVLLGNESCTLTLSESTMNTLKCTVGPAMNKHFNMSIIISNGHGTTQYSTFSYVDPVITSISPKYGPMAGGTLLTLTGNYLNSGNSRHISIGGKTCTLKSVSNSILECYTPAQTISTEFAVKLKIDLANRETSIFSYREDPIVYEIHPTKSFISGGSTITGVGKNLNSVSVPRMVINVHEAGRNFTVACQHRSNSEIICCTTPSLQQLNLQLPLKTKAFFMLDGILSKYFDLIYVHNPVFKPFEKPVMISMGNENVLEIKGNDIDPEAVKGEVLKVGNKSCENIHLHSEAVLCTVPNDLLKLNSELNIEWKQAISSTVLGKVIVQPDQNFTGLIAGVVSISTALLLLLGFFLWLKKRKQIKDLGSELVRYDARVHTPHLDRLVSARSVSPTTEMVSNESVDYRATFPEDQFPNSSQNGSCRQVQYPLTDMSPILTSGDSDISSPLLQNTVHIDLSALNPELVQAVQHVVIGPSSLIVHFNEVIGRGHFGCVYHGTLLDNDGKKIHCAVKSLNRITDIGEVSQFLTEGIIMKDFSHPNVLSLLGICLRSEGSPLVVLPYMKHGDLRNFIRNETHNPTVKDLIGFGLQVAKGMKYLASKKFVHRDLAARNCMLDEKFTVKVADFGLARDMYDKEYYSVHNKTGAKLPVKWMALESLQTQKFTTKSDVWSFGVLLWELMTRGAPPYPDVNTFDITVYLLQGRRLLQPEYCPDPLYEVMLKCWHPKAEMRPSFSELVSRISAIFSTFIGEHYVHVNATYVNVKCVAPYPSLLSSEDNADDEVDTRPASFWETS
EXPERIMENTAL_ENDPOINT: IC50 (nM)
Response body: numeric value in nM, unit text excluded.

Q: Fill blank: measured IC50 of the compound COc1cc2c(Oc3ccc(NC(=O)C4CCN(c5ccc(F)cc5)C4=O)cc3)ccnc2cc1OCCCCCCC(=O)NO (stereo unspecified) is ____.
Ans: 12.5

---

- Test system: MGC-803
- TEST_DETAILS: Cytotoxicity against human MGC-803 cells
- Type: functional, cell-based
EXPERIMENTAL_ENDPOINT: IC50
State the value, then name its unit.

Q: Value lookup for IC50; key = CCCCCCOc1ccc(/C=N/Nc2cc(C)nc3ccc(Cl)cc23)cc1
Ans: 2.2 µM

---

- System: HL-60
- TEST_DETAILS: Antiproliferative activity against human HL-60 cells assessed as reduction cell viability incubated for 48 hrs by MTT assay
- Format: functional, cell-based
- MEASUREMENT_PARAMETERS: HL-60, 48 h
EXPERIMENTAL_ENDPOINT: IC50 (nM)
Give the number; nM is assumed, so skip it.

# MOLECULAR_STRING, IC50 / nM
measured = [
    ("O=C(Nc1ccc(Nc2ccnc3ccccc23)cc1)c1ccc(Nc2ccncc2)cc1", 200),
]

Shifting focus to the compound that follows.
Q: # input compound: O=C(Nc1ccc(Nc2ccnc3ccccc23)cc1)c1cccc(Nc2ccnc3ccccc23)c1 ; wanted: its IC50
Ans: 1600
